# assay details: in vivo
# experimental parameters: male, Wistar-Hannover, rat, plasma, po, 12 mg/kg
experimental readout: AUC(0-t) (ng·h/mL)
Only the number, expressed in ng·h/mL, is required.

Problem: Quick one: AUC(0-t) of O=C(c1ccc(OCCN2CCCCC2)cc1)c1c(-c2ccc(O)cc2)sc2cc(O)ccc12 [raloxifene] ?
Solution: 452

====

# assay details: in vivo
# experimental parameters: male, Wistar-Hannover, rat, plasma, po, 12 mg/kg
experimental readout: Cmax

Problem: Quick one: Cmax of `O=C(c1ccc(OCCN2CCCCC2)cc1)c1c(-c2ccc(O)cc2)sc2cc(O)ccc12` ?
Solution: 50 to 60 ng/mL
